System: V. cholerae SAD30
Construct: SAD30
Set-up: species or system S. aureus MSSA476 (TSB) or V. cholerae SAD30 (LB); 384-well bacterial growth screen at 25 uM, OD600 relative to DMSO control
Recorded Conditions: relative growth, OD600, LB; 25 µM; inhibitor
Out of some 3,200 compounds screened, about 110 (3.4%) showed an effect of 50% or more. The sample holds strong results, similar compounds and a random draw of the others, so the mix is not that of the screen.
Experimental Readout: % of control remaining (%)
Answers are plain numbers, in %.

Each of the following entries comes with a recorded value; kindly state % of control remaining for each.
1. CC(Cl)C(=O)N1N=C(c2ccc(Cl)cc2)CC1c1ccco1 (centres unmarked)
2. O=C(CCl)Cc1ccc(F)cc1
3. O=C(CCl)Cc1ccc(F)c(F)c1
4. O=C(CCl)Cc1ccc(C(F)(F)F)cc1
5. CC(Cl)C(=O)Nc1cccc(Cl)c1 (centres unmarked) [5-H22, 2-chloro-N-(3-chlorophenyl)propanamide]
6. C=CCNC(=O)C(C#N)=Cc1ccc(C)s1
7. C=CC(=O)Nc1cc(C)nn1-c1ccccc1F
8. O=C1C=CC(=O)N1CCCCO

1: 49.4273; 2: 95.6945; 3: 19.3259; 4: 79.6415; 5: 106.42; 6: 77.8382; 7: 95.1365; 8: 17.4557

Each of the following entries comes with a recorded value; kindly state % of control remaining for each.
1. CN(C)CCN1C(=O)C=CC1=O
2. COc1ccc(C2=NN(C(=O)CCl)C(c3ccco3)C2)cc1 (centres unmarked)
3. C=CC(=O)NCC(c1c(F)cccc1F)N1CC(C)OC(C)C1 (centres unmarked)

1. 99.9026
2. 106.103
3. 82.5112

From: paper PMC11995724
